Provenance of the data: patent US7132252B2

# Test Target: CYP2C9 (Homo sapiens)
# Sequence (P11712 whole entry): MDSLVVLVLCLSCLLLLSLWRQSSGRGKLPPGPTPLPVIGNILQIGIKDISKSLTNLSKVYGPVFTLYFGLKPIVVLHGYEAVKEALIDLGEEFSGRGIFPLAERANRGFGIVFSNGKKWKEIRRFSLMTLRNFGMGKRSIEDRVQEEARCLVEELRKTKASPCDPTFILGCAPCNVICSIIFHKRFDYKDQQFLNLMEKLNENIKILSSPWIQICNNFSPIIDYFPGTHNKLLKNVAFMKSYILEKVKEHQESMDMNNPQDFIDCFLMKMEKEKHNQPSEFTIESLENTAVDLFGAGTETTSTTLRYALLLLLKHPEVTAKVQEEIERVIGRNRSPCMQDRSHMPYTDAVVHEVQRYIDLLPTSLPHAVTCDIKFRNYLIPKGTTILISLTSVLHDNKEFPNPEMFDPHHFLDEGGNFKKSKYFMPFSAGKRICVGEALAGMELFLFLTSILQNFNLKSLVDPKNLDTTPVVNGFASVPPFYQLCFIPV
# Protocol Summary: Kinetic properties of fluorogenic substrates with CYP 2C9
# Format: biochemical
# Condition Notes: turnover rate at 10 uM substrate; — = too low to quantify
Catalogue of v (10 uM) readings, one per entry.
Use min⁻¹ as the unit, but write only the number.

Consider the reported v (10 uM) for these compounds:
>>> assay_value("CCCCCCCCOCOc1ccc2nc3ccc(=O)cc-3oc2c1 [OOMR, Octyloxymethylresorufin]")
0.31
>>> assay_value("N#Cc1cc2ccc(OCOCc3ccccc3)cc2oc1=O [BOMCC, 7-Benzyloxymethyloxy-3-cyanocoumarin]")
0.42
>>> assay_value("N#Cc1cc2ccc(OCc3ccccc3)cc2oc1=O [BCC, 7-Benzyloxy-3-cyanocoumarin, reference compound]")
0.00
>>> assay_value("COCOc1ccc2cc(C#N)c(=O)oc2c1 [MOMCC]")
0.07
>>> assay_value("COc1ccc2cc(C#N)c(=O)oc2c1 [3CMC, 3-cyano-7-methoxycoumarin, reference compound]")
0.04
>>> assay_value("COc1ccc(COc2ccc3nc4ccc(=O)cc-4oc3c2)cc1 [MOBR, Paramethoxybenzylresorufin]")
0.02

API: the following record is the query input.
**Q:** Tell us which v (10 uM) value is on record for COCOc1ccc2c(C(F)(F)F)cc(=O)oc2c1 [MOMFC, 7-Methyloxymethyloxy-4-trifluorocoumarin]
**A:** 0.07

====

# Test Target: UniProtKB P33261
# Sequence (P33261 whole entry): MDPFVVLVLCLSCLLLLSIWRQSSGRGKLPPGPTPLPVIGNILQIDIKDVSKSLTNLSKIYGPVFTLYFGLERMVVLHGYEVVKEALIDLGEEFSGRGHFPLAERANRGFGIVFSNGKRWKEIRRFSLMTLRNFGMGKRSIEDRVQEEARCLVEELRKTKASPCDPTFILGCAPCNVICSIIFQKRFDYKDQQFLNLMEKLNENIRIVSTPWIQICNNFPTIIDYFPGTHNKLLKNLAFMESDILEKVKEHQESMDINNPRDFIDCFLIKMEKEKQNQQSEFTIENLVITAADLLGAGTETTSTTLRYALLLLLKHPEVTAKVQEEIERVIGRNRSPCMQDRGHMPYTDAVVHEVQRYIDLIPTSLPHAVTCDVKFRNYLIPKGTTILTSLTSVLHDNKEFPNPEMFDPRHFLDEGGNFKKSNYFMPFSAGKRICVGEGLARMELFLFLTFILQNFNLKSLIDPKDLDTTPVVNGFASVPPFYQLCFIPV
# Protocol Summary: Kinetic properties of fluorogenic substrates with CYP 2C19
# Assay type: biochemical
# Condition Notes: turnover rate at 1.25 uM substrate; — = too low to quantify
v (1.25 uM) strictly less than 0.1 min⁻¹ = rule met. Otherwise rule not met.

>>> answer_label("COc1ccc2cc(C#N)c(=O)oc2c1 [3CMC, 3-cyano-7-methoxycoumarin, reference compound]")
"rule met"

**Q:** Below 0.1 min⁻¹ on v (1.25 uM)? Entry COCOc1ccc2cc(C#N)c(=O)oc2c1 [MOMCC]
**A:** rule not met

**Q:** Below 0.1 min⁻¹ on v (1.25 uM)? Entry CCOCOc1ccc2cc(C#N)c(=O)oc2c1 [EOMCC]
**A:** rule not met

**Q:** Below 0.1 min⁻¹ on v (1.25 uM)? Entry COCOc1ccc2nc3ccc(=O)cc-3oc2c1 [MOMR]
**A:** rule met

**Q:** Below 0.1 min⁻¹ on v (1.25 uM)? Entry CCOc1ccc2cc(C#N)c(=O)oc2c1 [3CEC, 3-Cyano-7-ethoxycoumarin, reference compound]
**A:** rule met

**Q:** Below 0.1 min⁻¹ on v (1.25 uM)? Entry N#Cc1cc2ccc(OCc3ccccc3)cc2oc1=O [BCC, 7-Benzyloxy-3-cyanocoumarin, reference compound]
**A:** rule met

**Q:** Below 0.1 min⁻¹ on v (1.25 uM)? Entry COc1ccc(COc2ccc3nc4ccc(=O)cc-4oc3c2)cc1 [MOBR, Paramethoxybenzylresorufin]
**A:** rule not met

**Q:** Below 0.1 min⁻¹ on v (1.25 uM)? Entry CCCCCCCCOCOc1ccc2cc(C#N)c(=O)oc2c1 [OOMCC]
**A:** rule not met

**Q:** Below 0.1 min⁻¹ on v (1.25 uM)? Entry CC(C)Oc1ccc2cc(C#N)c(=O)oc2c1 [IPCC]
**A:** rule met

**Q:** Below 0.1 min⁻¹ on v (1.25 uM)? Entry N#Cc1cc2ccc(OCOCc3ccccc3)cc2oc1=O [BOMCC, 7-Benzyloxymethyloxy-3-cyanocoumarin]
**A:** rule not met

**Q:** Below 0.1 min⁻¹ on v (1.25 uM)? Entry CCN(CC)Cc1cc(=O)oc2cc(OC)ccc12 [DMMC]
**A:** rule met
